- target-entity: T1, SAP1 (UniProt P28324 1-93)
- T1 sequence: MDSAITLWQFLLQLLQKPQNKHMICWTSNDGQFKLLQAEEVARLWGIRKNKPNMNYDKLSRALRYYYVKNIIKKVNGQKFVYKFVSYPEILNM
- assay-procedure: BLI; BLI on streptavidin biosensors; buffer with NaCl (concentration not in material), 0.01 mM EDTA, 0.05% Tween 20; pH and temperature not in material
- condition: protein: recombinant; label: biotin; 11-bp duplex; hybridized on immobilized ssDNA
measure-name: pKd
Keep it numeric: pKd is minus log10 of the concentration in mol/L.

## Input Note down pKd recorded for 26 (dsDNA) DNA 1: GACAGGATGTG DNA 2: CACATCCTGTC
## Output 5.97
